- procedure.text: clinical
- test.parameters: human, in vivo, po, 1000 mg
attribute.measured: half-life (h)

{"smiles.notation": "Cn1c(=O)n([C@@H]2CCC(=O)NC2=O)c2cccc(C#CCOC3CCN(C[C@H]4CC[C@H](n5cc(NC(=O)c6cnn7ccc(N8C[C@H]9C[C@@H]8CO9)nc67)c(C(F)F)n5)CC4)CC3)c21", "attribute.measured": "half-life", "result": 40.2}

* * *

- procedure.text: Phase 1 MAD plasma PK in healthy volunteers
- Type: in vivo, human
- test.parameters: human, plasma, oral; 50 mg QD, Day 14 steady state, geometric mean (% CV)

{"compound": "Cn1c(=O)n([C@@H]2CCC(=O)NC2=O)c2cccc(C#CCOC3CCN(C[C@H]4CC[C@H](n5cc(NC(=O)c6cnn7ccc(N8C[C@H]9C[C@@H]8CO9)nc67)c(C(F)F)n5)CC4)CC3)c21 [Compound A]", "unit.text": "ng/mL", "Cmax": 12}

# credit: patent US20260207614A1
